Measured T/C of individual entries
Test system: P388 leukemia ip, CD2F1 mice, survival T/C
Experiment: NCI In Vivo Anticancer Drug Screen. Data for tumor model P388 Leukemia (intraperitoneal) in CD2F1 (CDF1) mice
Conditions: endpoint: median survival time; dose: 200.0 mg/kg/injection; schedule: Q01DX009 (ip); vehicle: saline with Tween-80; higher = longer survival
Experimental: The antitumor activity of compounds was measured in mice bearing transplantable tumors. Survival or tumor size were measured and the results are expressed as the measurement made in the treated group (T) divided by the measurement made in the vehicle treated control group (C). The tumor model used in this assay is P388 Leukemia (intraperitoneal) in CD2F1 (CDF1) mice
Toxic doses and inconclusive results are not listed.
MEASURE: T/C

* c1ccc2c(c1)Cc1nc3ccccc3nc1-2 | 95 % of control
* O=C1CSC(=O)N1c1ccc(F)cc1 | 87 % of control
* Cc1ccc(S(=O)(=O)OC2CCN(C(=O)OCc3ccccc3)CC2)cc1 | 98 % of control
* COC1CC(N)C2OC(c3ccccc3)OCC2O1 (stereo unspecified) | 109 % of control
* CCCCCCCCC1SC1CCCCCCCC(=O)OCCOCCOCC (stereo unspecified) | 104 % of control
* Cc1cc(-c2ccccc2)n(C(C(=O)c2ccccc2)c2ccccc2)n1 (stereo unspecified) | 100 % of control

----------
system: P388 leukemia ip, CD2F1 mice, survival T/C; test: NCI In Vivo Anticancer Drug Screen. Data for tumor model P388 Leukemia (intraperitoneal) in CD2F1 (CDF1) mice; conditions: endpoint: median survival time; dose: 6.25 mg/kg/injection; schedule: Q01DX009 (ip); vehicle: saline with Tween-80; higher = longer survival
Inconclusive results and toxic doses are left out.
MEASURE: T/C

• CC(C)=CCC1=CC(=O)C=CC1=O = 98 % of control
• S=c1nn[nH]n1-c1ccccc1.[Cd] = 94 % of control
• CCCCNCCC(=O)c1ccc(Cl)cc1 = 100 % of control
• O=C1Nc2ccccc2C(O)(c2ccccc2)N1Cc1ccccc1 (configuration not stated) = 91 % of control
• CCCOC1=C(N2CC2)C(=O)C(OCCC)=C(N2CC2)C1=O = 190 % of control
• CC1C/C(=C2/NC3CCCCC3NC2=O)C(=O)O1 (configuration not stated) = 100 % of control
• O=S(=O)(C(Br)CBr)C(Br)CBr (configuration not stated) = 113 % of control

----------
system: P388 leukemia ip, CD2F1 mice, survival T/C; experiment: NCI In Vivo Anticancer Drug Screen. Data for tumor model P388 Leukemia (intraperitoneal) in CD2F1 (CDF1) mice; conditions: endpoint: median survival time; dose: 25.0 mg/kg/injection; schedule: Q01DX009 (ip); vehicle: distilled water + Tween-80; higher = longer survival
Toxic doses and inconclusive results are not listed.
Form field: T/C (one value per entry).
MEASURE: T/C

- CCC[As](CCC)SC1CCC2(C)C(=CCC3C4CCC(=O)C4(C)CCC32)C1 (stereo not drawn): 98 % of control
- CCCCCC(CSCC)C(=O)/C=C/c1ccc(Cl)c(Cl)c1 (stereo not drawn): 105 % of control
- CSCCn1ccnc1[N+](=O)[O-]: 96 % of control
- CCOC(=O)Cc1cc2c(cc1C)CN=C(OCC)C2: 94 % of control
- CCOC(=O)c1[nH]c(=O)[nH]c(=O)c1CBr: 98 % of control
- O=C1N=C2OC3(CCCCC3)OC(=O)N2C2(CCCCC2)O1: 93 % of control
- CC(C)(C)OC(=O)C(Cc1cnc2nc(N)nc(N)c2n1)C(=O)OC(C)(C)C: 95 % of control
- CCOC(=O)Cn1ccnc1[N+](=O)[O-]: 97 % of control

----------
test system: P388 leukemia ip, CD2F1 mice, survival T/C; assay: NCI In Vivo Anticancer Drug Screen. Data for tumor model P388 Leukemia (intraperitoneal) in CD2F1 (CDF1) mice; conditions: endpoint: median survival time; dose: 50.0 mg/kg/injection; schedule: Q01DX005 (ip); vehicle: saline with Tween-80; higher = longer survival
Toxic doses and inconclusive results are not listed. Peptide text beside a SMILES is read from it. * marks the point of attachment. Cbz = O=C(OCc1ccccc1)*
This section presents molecules with their documented T/C values.
MEASURE: T/C

* COCC(=O)c1ccccc1-c1ccccc1 | 100 % of control
* COC(=O)/N=C/CCC(O)NC(=O)OC (stereo not given) | 98 % of control
* CC1C(O)C(C)C(c2ccccc2)N(C)C1c1ccccc1 (stereo not given) | 100 % of control
* CCC(C)C(NC(=O)C(Cc1ccc(O)cc1)NC(=O)OCc1ccccc1)C(=O)OC (stereo not drawn) (Cbz-Tyr-Ile-OMe; configuration not given here) | 106 % of control
* O=C1C2CCc3cnn(-c4ccccc4)c3C2C(=O)N1c1ccccc1 (stereo not given) | 101 % of control
* Cc1c(-c2ccccc2)oc(=O)c(Cl)c1N(c1ccccc1)c1ccccc1 | 93 % of control
* CS(=O)(=O)OCCBr | 110 % of control
* N#CC(C(=O)C(=O)Nc1cccc(C(F)(F)F)c1)c1ccccc1 (stereo not given) | 93 % of control
* CC(=O)c1c(-c2ccc(F)cc2)c(-c2ccc(F)cc2)n[nH]c1=O | 100 % of control
* O=C(CN1C(=O)c2cccc3c(Br)ccc(c23)C1=O)c1ccc(F)cc1 | 87 % of control
* CCCCN(CCCC)CC(O)c1c(OC)ccc2ccccc12 (stereo not given) | 119 % of control
* COc1ccc2c3c(cnc2c1)C(=O)CCC3 | 104 % of control
* CC1=C(C#N)C2(N)OC1(C)C1C(=O)C=CC(=O)C12 (stereo not given) | 110 % of control
* COC(=O)C1=C(C(=O)OC)[C@@H]2CCC[C@H]1[C@H]1[C@@H]2N=NN1c1ccccc1 | 100 % of control
* OCNC(=S)c1ccccc1 | 105 % of control
* CC(C)(C)OC(=O)NC(Cc1ccc(OCc2c(Cl)cccc2Cl)cc1)C(=O)O (stereo not given) | 104 % of control
* CN(C)N1C(=O)c2c(Cl)c(Cl)c(Cl)c(Cl)c2C1=O | 94 % of control
* Cc1ccc2oc(-c3nnc(N)s3)cc(=O)c2c1 | 100 % of control
* O=C1NC(=O)c2cc3ccccc3cc21 | 87 % of control
* CCCCOCN(CC(CC)CCCC)CC(CC)CCCC (stereo not given) | 98 % of control
* O=C(O)CCCCCCCCC#CC#CCO | 101 % of control
* Nc1ccc2ccccc2c1-c1cccc2ccccc12 | 96 % of control
* CN1CC2(C)CCCC(C)(C1)C2O (stereo not given) | 106 % of control
* CC(C)[C@@H]1CC[C@@H](C)C[C@H]1N | 113 % of control
* CCOc1c(N=Nc2ccc(Cl)cc2)c(-c2ccccc2)nn1C(=S)S | 97 % of control

----------
test system: P388 leukemia ip, CD2F1 mice, survival T/C; experiment: NCI In Vivo Anticancer Drug Screen. Data for tumor model P388 Leukemia (intraperitoneal) in CD2F1 (CDF1) mice; details: endpoint: median survival time; dose: 12.5 mg/kg/injection; schedule: Q04DX002 (ip); vehicle: saline with Tween-80
Toxic doses and inconclusive results are not listed. The calls were made as follows: active = survival T/C of 150% or more; inactive = T/C below 125% in these data.
Labels: yes (1) = active, no (0) = inactive

• O=C(O)C(=O)O.[NH-]C1CCCC1[NH-].[Pt+2] (centres undefined) = yes (1)
• N#CC1=CC2C3C(=O)N(c4ccccc4)C(=O)C3C1N(Cc1ccccc1)C2c1ccccc1 (centres undefined) = no (0)
• [Cl][Pt+2][Cl].[NH-]c1ccc(S(=O)(=O)O)cc1[NH-] = no (0)
• CCCCC1N=CNc2c1ccc1c2[nH]c2ccccc21 (centres undefined) = no (0)

----------
Listing of recorded T/C by entry.
test system: P388 leukemia ip, CD2F1 mice, survival T/C; test: NCI In Vivo Anticancer Drug Screen. Data for tumor model P388 Leukemia (intraperitoneal) in CD2F1 (CDF1) mice; settings: endpoint: median survival time; dose: 100.0 mg/kg/injection; schedule: Q04DX002 (ip); vehicle: Klucel (hydroxypropylcellulose) (HPC); higher = longer survival
Toxic doses and inconclusive results are not listed.
MEASURE: T/C

- Clc1ccc(C(Nc2nncs2)Nc2nncs2)c(Cl)c1: 109 % of control
- Cc1nc2n(c1C(N)=O)CCS2: 102 % of control
- O=C1SC(Nc2ccc([N+](=O)[O-])cc2)/C(=N\N=C2/C(Nc3ccc([N+](=O)[O-])cc3)SC(=O)N2Cc2ccccc2)N1Cc1ccccc1 (stereo not drawn): 95 % of control
- CCOC(=O)/C(C#N)=C(\CCC(C(=O)O)N1C(=O)c2ccccc2C1=O)OC (stereo not drawn): 102 % of control
- C/C(=N\NC(N)=O)C1(c2ccccc2)CCN(C)CC1: 100 % of control
- Cc1cccc(=O)[n-]1.Cc1cccc(=O)[n-]1.Cc1cccc(=O)[n-]1.Cc1cccc(=O)[n-]1.[Rh+2].[Rh+2]: 103 % of control
- O=C(NCCc1ccccn1)c1cc(Cl)ccc1O: 95 % of control
- COc1ccc([C@@H]2c3cc4c(cc3C[C@H]3COC(=O)[C@@H]32)OCO4)cc1OC: 124 % of control
